Test system: Vero E6 infected with SARS-CoV-2
Measurement Notes: inhibition of SARS-CoV-2 cytopathic effect; higher = more antiviral protection, active = above 15
Assay Setup: 10000 nM; 48 h
Measured Quantity: inhibition of SARS-CoV-2 cytopathic effect

Here's what some known entries look like.
COc1ccc2cc(-c3nc(-c4ccc([S+](C)[O-])cc4)[nH]c3-c3ccncc3)ccc2c1 (stereo not drawn) :: 9.27% (inactive)
O=C(Nc1cnn2ccc(N3CCC[C@@H]3c3cc(F)ccc3F)nc12)N1CC[C@H](O)C1 :: 2.41% (inactive)

Next item in the queue.
inhibition of SARS-CoV-2 cytopathic effect reading for COc1cccc2c1C(=O)c1c(O)c3c(c(O)c1C2=O)C[C@@](O)(/C(CO)=N/NC(=O)CCCCCN1C(=O)C=CC1=O)C[C@@H]3O[C@H]1C[C@H](N)[C@H](O)[C@H](C)O1 : -1.37% (inactive)

###

Test system: Vero E6 infected with SARS-CoV-2
Measurement Notes: inhibition of SARS-CoV-2 cytopathic effect; higher = more antiviral protection, active = above 15
Assay Setup: 1 nM; 48 h
inhibition of SARS-CoV-2 cytopathic effect reference
Numeric only. Scale: %

O=C(O)c1cc(O)c2ccc(Cl)cc2n1 :: 1.64
CC(=O)N(C)c1cccc(-c2ccnc3c(C(=O)c4cccs4)cnn23)c1 :: 2.87
O=P1(N(CCCl)CCCl)NCCCO1 (stereo not given) [cyclophosphamide] :: -3.03
COc1ccc(CNCc2cccc3ccccc23)cc1 :: -2.74
CC(c1cc2ccccc2s1)N(O)C(N)=O (stereo not given) :: -2.05
Cc1ccc(NC(=O)c2cccc(C(C)(C)C#N)c2)cc1Nc1ccc2ncn(C)c(=O)c2c1 :: 1.24
NC(=O)c1cccc2cn(-c3ccc([C@@H]4CCCNC4)cc3)nc12 :: -0.28
CN(Cc1ccccc1)C(=O)[C@H](Cc1ccc2ccccc2c1)NC(=O)[C@@H]1C[C@@H](O)CN1C(=O)c1cn(C)c2ccccc12 :: 1.18

# value of inhibition of SARS-CoV-2 cytopathic effect, Vero E6 infected with SARS-CoV-2, item COc1ccc(C2(O)CCC(N3CC[C@@H](NC(=O)CNC(=O)c4cccc(C(F)(F)F)c4)C3)CC2)cn1 (stereo not given in full) = -0.385

# lookup: N#CC(Cc1ccc(O)cc1)c1ccc(O)cc1 (stereo not given) on Vero E6 infected with SARS-CoV-2, inhibition of SARS-CoV-2 cytopathic effect = -1.07

###

Quick list: inhibition of SARS-CoV-2 cytopathic effect per entry.
Tested on: Vero E6 infected with SARS-CoV-2
Measurement Notes: inhibition of SARS-CoV-2 cytopathic effect; higher = more antiviral protection, active = above 15
Assay Setup: 833.33 nM; 48 h

OC[C@H]1O[C@@H](n2cnc3c(N[C@H]4CCC[C@@H]4O)ncnc32)[C@H](O)[C@@H]1O :: -0.63% (inactive)
CC1=NN(c2ccccc2)C(=O)C1 :: 0.1% (inactive)
COc1cc2ncnc(Oc3cccc(NC(=O)Nc4cc(C(C)(C)C(F)(F)F)on4)c3)c2cc1OC :: -0.98% (inactive)

Consider the record given below.
Documented inhibition of SARS-CoV-2 cytopathic effect of CC(=O)O[C@H]1CC[C@@]2(C)C(=CC[C@@H]3[C@@H]2CC[C@]2(C)C(=O)CC[C@@H]32)C1 [prasterone-acetate] : 4.82% (inactive)

###

Test system: Vero E6 infected with SARS-CoV-2
Measurement Notes: inhibition of SARS-CoV-2 cytopathic effect; higher = more antiviral protection, active = above 15
Assay Setup: 8.33 nM; 48 h
Measured Quantity: inhibition of SARS-CoV-2 cytopathic effect (%)
Note: unit % is implicit; provide only the numeric part.

O=C1C(O)=C(O)C(=O)C(O)=C1O :: 0.57
CSc1ccc(C(=O)N[C@@H]2CCCC[C@@H]2NC(=O)CNC(=O)c2cc(C(F)(F)F)ccc2NC(=O)NC(C)C)cc1 :: -0.79
N#Cc1ccccc1OCC(O)CNCCNC(=O)Nc1ccccc1 (stereo not given) :: 0.87
COC(=O)[C@@H](N)CCCNC(=N)N[N+](=O)[O-] :: -2.09
O=C(O)c1ccc(CN2CCC(CN[C@@H]3C[C@H]3c3ccccc3)CC2)cc1 :: 1.52

# lookup: COC(=O)C1=C(C)NC(C)=C(C(=O)O[C@H]2CCN(Cc3ccccc3)C2)[C@H]1c1cccc([N+](=O)[O-])c1 on Vero E6 infected with SARS-CoV-2, inhibition of SARS-CoV-2 cytopathic effect = 1.62

Simply: C=CCN1CC[C@]23c4c5ccc(O)c4O[C@H]2C(=O)CC[C@@]3(O)[C@H]1C5 , Vero E6 infected with SARS-CoV-2, inhibition of SARS-CoV-2 cytopathic effect = 1.85

Assay Vero E6 infected with SARS-CoV-2, sample O=C(NOCC(O)CO)c1cc(Br)c(F)c(F)c1Nc1ccc(I)cc1F (stereo not given) , inhibition of SARS-CoV-2 cytopathic effect read: -0.08

# inhibition of SARS-CoV-2 cytopathic effect measured on Vero E6 infected with SARS-CoV-2 for item NC(=O)c1ccc(I)c([N+](=O)[O-])c1 = 1.76

Vero E6 infected with SARS-CoV-2 inhibition of SARS-CoV-2 cytopathic effect of Cc1c(C)c2c(c(C)c1O)CCC(C)(C)O2 is -0.34

###

Collected morphology score values appear next to each entry.
Tested on: Vero E6 infected with SARS-CoV-2
Measurement Notes: morphology score (similarity to uninfected cells); higher = more like uninfected cells
Assay Setup: 24 h
Give the value as a plain number.

CCCNC(C)C(=O)Nc1c(C)csc1C(=O)OC (stereo not given) [articaine] (10 µM) :: 0.0926

// recorded morphology score for COc1cc2c(cc1OC)C1CC(=O)C(CC(C)C)CN1CC2 (stereo not given) [tetrabenazine] (10 µM) : 0.159

morphology score reported for this compound CCCn1c(=O)c2nc(-c3ccccc3)[nH]c2n(CCC)c1=O [1,3-dipropyl-8-phenylxanthine] (10 µM) : 0.102

Per the record, CCS(=O)(=O)N1CC(CC#N)(n2cc(-c3ncnc4[nH]ccc34)cn2)C1 [baricitinib] (10 µM) has morphology score of 0.418

Item: Clc1cccc(N2CCNCC2)c1 (10 µM) | morphology score: 0.0057

###

Listing of entries alongside the reported inhibition of SARS-CoV-2 cytopathic effect.
Tested on: Vero E6 infected with SARS-CoV-2
Measurement Notes: inhibition of SARS-CoV-2 cytopathic effect; higher = more antiviral protection, active = above 15
Assay Setup: 10000 nM; 48 h
Return type: number; implicit unit %.

Illustrative cases are given below, each with its answer.
NCCCCCC(O)(P(=O)(O)O)P(=O)(O)O :: 3.47
CC(C)[C@H](CO)Nc1nc(Nc2cc(N)cc(Cl)c2)c2ncn(C(C)C)c2n1 :: -6.98
Oc1noc2c1CCNC2 :: -2.2
CN(C)CCCN1c2ccccc2Sc2ccc(Cl)cc21 :: 7.04
O=C1NC(c2cccc([N+](=O)[O-])c2)=CCN1c1ccccc1O :: 0.77
COc1cc(C)c(/C=C/C(C)=C/C=C/C(C)=C/C(=O)O)c(C)c1C :: -0.58
NCCc1cc[nH]n1 :: 0.97
Cn1cc(-c2ccc3nnc(C(F)(F)c4ccc5ncccc5c4)n3n2)cn1 :: 6.76

Note to self: inhibition of SARS-CoV-2 cytopathic effect recorded for NC(=S)N/N=C/c1coc2ccccc2c1=O.[Cl][Cu][Cl] was 2.4

# compound Cc1cc(C)cc(C(=O)NOCCCCCC(=O)NO)c1 ; its inhibition of SARS-CoV-2 cytopathic effect = -23.1

###

Test system: Vero E6 infected with SARS-CoV-2
Measurement Notes: SARS-CoV-2 infection rate relative to infected DMSO; higher = more infection, active = 60 or less
Assay Setup: 24 h
Hi! Could you answer with just one of these? active, inactive

These solved cases illustrate the format of a correct answer.
CCCCNc1nc(N)c2[nH]c(=O)n(Cc3ccc(OCCN(C)C)nc3)c2n1 (10 µM) :: inactive
O=C(O)/C=C1\CCCc2ccccc2[C@H]1O (racemic) (10 µM) :: inactive
CC1(C)CC[C@]2(NC(=O)C(C)(F)F)CC[C@]3(C)[C@H](C(=O)C=C4[C@@]5(C)C=C(C#N)C(=O)C(C)(C)[C@@H]5CC[C@]43C)[C@@H]2C1 [Omaveloxolone (RTA-408)] (10 µM) :: inactive

**Q:** State the result this test recorded for CCn1c(-c2nonc2N)nc2cnc(Oc3cccc(NC(=O)c4ccc(OCCN5CCOCC5)cc4)c3)cc21 (10 µM) .
**A:** inactive

**Q:** Called result for CC(=O)c1cc([N+](=O)[O-])c(Sc2ccc(F)cc2F)s1 (10 µM)
**A:** active

**Q:** // outcome(item) with item = CC1=NN(c2ccccc2)C(=O)C1 [edaravone] (10 µM)
**A:** inactive

**Q:** Would you mind telling me which call this test gave Cc1oc(-c2ccccc2)nc1CCOc1ccc(CC2SC(=O)NC2=O)c2sccc12 (configuration not stated) [edaglitazone] (10 µM) ?
**A:** inactive

**Q:** Which outcome was entered for the molecule CCN(CCO)CCCC(C)Nc1ccnc2cc(Cl)ccc12 (configuration not stated) [hydroxychloroquine] (10 µM) in this test?
**A:** inactive

**Q:** I would be grateful if you could indicate the recorded call for O=C1NC(=O)C(c2cnc3ccccn23)=C1c1cn2c3c(cc(F)cc13)CN(C(=O)N1CCCCC1)CC2 (10 µM) .
**A:** inactive

**Q:** Hello, I am checking results. What call was entered for Cc1cc(-c2nc3cc(F)ccc3s2)ccc1NC(=O)[C@@H](N)CCCCN [phortress] (10 µM) ?
**A:** inactive

**Q:** Test call for this molecule, please: COC(=O)Nc1nc2cc(C(=O)c3ccc(F)cc3)ccc2[nH]1 [flubendazole] (10 µM)
**A:** inactive
